Consider the following molecules and their measured IC50 readings.
Tested on: pERK (phospho-p44/42 ERK) in HCC827 cells
protocolText: Cellular pERK Inhibition Assay, Method A (In-Cell Western)
Format: cell-based
assaySetup: Homo sapiens, Table 20, read-out: pERK (IC50, μM) Method A

Sample answers from the record:
> print(dat)
                                   molecule  measuredendpoint   result
1  Cn1nc2ccc(-c3c[nH]c4nc(N5[C@H]6CC[C@@H]5[C@](C)(N)C6)n(C)c(=O)c34)c(Cl)c2c1Cl (racemic) [Example 173]              IC50  0.14 µM
2  Cn1cc2c(Cl)c(-c3c[nH]c4nc(N5[C@H]6CC[C@@H]5[C@@H](N)C6)n(C)c(=O)c34)ccc2n1 (racemic) [Example 164]              IC50   6.3 µM

Now for a further molecule.
Query: // IC50 lookup, key: Cn1nc2ccc(-c3n[nH]c4nc(N5[C@H]6CC[C@@H]5[C@](C)(N)C6)n(C)c(=O)c34)c(Cl)c2c1Cl (racemic) [Example 175]
Response: 0.22 µM

###

measuredTarget: SHP2 (Homo sapiens (Human), UniProt Q06124)
Sequence (Q06124 whole entry): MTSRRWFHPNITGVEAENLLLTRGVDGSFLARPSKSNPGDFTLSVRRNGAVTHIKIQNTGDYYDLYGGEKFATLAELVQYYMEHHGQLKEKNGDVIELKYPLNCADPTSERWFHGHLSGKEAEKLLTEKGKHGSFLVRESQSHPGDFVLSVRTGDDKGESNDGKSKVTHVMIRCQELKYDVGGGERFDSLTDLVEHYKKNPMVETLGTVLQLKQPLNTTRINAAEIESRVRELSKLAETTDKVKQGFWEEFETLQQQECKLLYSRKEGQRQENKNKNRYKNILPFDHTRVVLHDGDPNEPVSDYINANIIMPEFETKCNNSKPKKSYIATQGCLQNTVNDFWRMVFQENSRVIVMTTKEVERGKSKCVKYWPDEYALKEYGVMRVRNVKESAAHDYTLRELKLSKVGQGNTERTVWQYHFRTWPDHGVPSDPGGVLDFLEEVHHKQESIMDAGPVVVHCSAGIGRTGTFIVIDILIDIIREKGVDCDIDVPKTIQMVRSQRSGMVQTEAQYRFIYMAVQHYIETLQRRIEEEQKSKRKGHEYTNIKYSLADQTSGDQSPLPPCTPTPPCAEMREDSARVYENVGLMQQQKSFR
protocolText: SHP2 Biochemical Assay (DiFMUP conversion, pIRS1-activated)
assaySetup: Table 19; head prints unit as "-M"
measuredEndpoint: pIC50
As a rule, pIC50 stands for the negative log10 of the concentration, concentration in M.

Previously resolved entries follow.
> print(dat)
                                   molecule                            measuredtarget  measuredendpoint  resultnumber
1  CN[C@@H]1C[C@@H]2CC[C@H]1N2c1nc2[nH]cc(-c3ccc4nn(C)c(Cl)c4c3F)c2c(=O)n1C  SHP2 (Homo sapiens (Human), UniProt Q06124)             pIC50          8.30
2  Cn1cc2c(Cl)c(-c3c[nH]c4nc(N5[C@@H]6CC[C@H]5[C@H](F)[C@@H](N)C6)n(C)c(=O)c34)ccc2n1  SHP2 (Homo sapiens (Human), UniProt Q06124)             pIC50          7.20

Query: Could you share what pIC50 was measured for CCn1cc2c(Cl)c(-c3c[nH]c4nc(N5[C@@H]6CC[C@H]5C[C@@H](NC)C6)n(C)c(=O)c34)ccc2n1 , tested on SHP2 (Homo sapiens (Human), UniProt Q06124)?
Response: 7.72

Query: Request - read-out pIC50 | tested on SHP2 (Homo sapiens (Human), UniProt Q06124) | molecule CN[C@@H]1C[C@@H]2CC[C@H]1N2c1nc2[nH]nc(-c3ccc4nc(C)sc4c3Cl)c2c(=O)n1C
Response: 7.72

Query: Form field: pIC50 recorded for Cc1c2c(Cl)c(-c3c[nH]c4nc(N5[C@H]6CC[C@@H]5[C@H](N)C6)n(C)c(=O)c34)ccc2nn1C with SHP2 (Homo sapiens (Human), UniProt Q06124) (enter value)
Response: 8.30

Query: Item Cn1c(N2[C@@H]3CC[C@H]2C[C@@H](N)C3)nc2[nH]cc(-c3ccc4nnn(C)c4c3Cl)c2c1=O with SHP2 (Homo sapiens (Human), UniProt Q06124) - pIC50?
Response: 6.77
